- test details: soluble on expression in E. coli; label from the status in PepcDB or PDB records
readout: soluble on expression in E. coli

# item sequence, result
records = [
    ("MSLPTTSSPLTNDQEFAKPVRNGKIFENPKSFTNWGGRPGLTNIFKLVLRETSHENLPSDKKVLDSTLPVHNITADDFHSESGLFATWLGHATVLVDLEGVKFVTDPVWADRASFTSFAGPKRYRPPPMKLEDLPDLDFAVVSHDHYDHLDADAVKRITNLNPQIKWFVPLGLKKWMKNQGIGADGSNTVTELNWGESSEFVKNGKTITIWCLPAQHSGQRGLSDHNHRLWSGWAVIGENRRFYFPGDTGFCDVEFKKIGEKLGPFDLAAIPIGAYEPRWFMKSHHINPDEAVEVHKLVRARNSIGIHWGTYPMGTTEYYLEPRDKLKELMDAREDLKDTSFVTVDMGEIWEASDR", "not soluble"),
    ("MLFDSHAHYDNKRFDEDRFEVIKKAYDSGVSYILNAAADMASSLETVSLTRKFDFIYGAVGVHPHEVAKMSDDDIEKLKDFAKEEKIVAIGEIGLDYYYDFSPREQQKLWFARQINLAKELNLPIIVHDRDAHKDVLDIVKAEQAKDVGGVFHCYSGSVEMLKDVLENNFYISVGGTLTFKNAKRVVEVVERVPLDRLLIETDCPYLTPEPHRGKRNDSSYVRLVAEKIAKIRGMSFEEVAEITTNNAKRLFGIK", "not soluble"),
    ("MGSDKIHHHHHHMGKTIAIMQPYFLPYIGYWQLMKASDIFVVYDNIKYTKKGWVNRNRYLSNGKIKLFSIPLMKASNSLQIKDRYLAETYKLESAKTLRKIKDAYAVSKNFHPCFNLIERCFNANENNLFEFIYNSVAIFKDVLGLRAQLVVSSSIACDHSLNSAERVKAICTELGAESYINPVGGEHLYERDDFQKLGINLRFLKPRIEEYPQLSCQFQPYMSILDICMSCTFDEVKNNII", "not soluble"),
    ("MISVVIPAKDEVGNIGPLMKEICQALQGVTEFEILVVDDGSQDDTFGEVIHTAELMLCNAKAIRHERSTGQSTAISTGVLHARGQYIVTLDADGQNDPADIPAMLAQLPQIHAEHFCIAGYRKNRKDTAWKRFQSRFANKVRDALLHDGVPDTGCGLKLFPRETFLRMPYFDHMHRYIPALVRRMGGEVFISVVNHRDRQLGVSKYTAWNRVWVGIVDIMGVIWLGRRAKIAKVARSETRWHDLEHHHHHH", "soluble"),
    ("MFSGKRLKKRRITLGYSQSELADKLHINRSSYFNWENEKTKPNQSNLKQLAILLDVPETYFESEYKIVNTYLQLSLQNQEKVEKYAEELLQTQKVHEKIVPLFAVEVLSEIQLSAGPGEGLYDEFETETVYSEDEYTGFDIATWISGNSMEPVYKDGEVALIRSTGFDHDGAVYALNWNGSLYIKKLYREEDGFRMVSINPDVAERFIPFEDEIRIVGKIVGHFMPVIGGLEHHHHHH", "soluble"),
    ("SRMMVIKNNSEETKSREYIVIGQVFFASSDKFIASFDFKEVIECVTIDLSAAHFWDITSASALDKVVVKFRREGTQVELIGMNQATKTIVDKFGVHDKPEEVEKLLAG", "not soluble"),
    ("MKKIYKVLYPVGFQIFEVQDDYVVALPFVEEKPLENLVNEQSQFFNFSEQKWEEAVTQDYTKKLNLLENLANGLEVSNSELKQANEKLTAKAESLAQINSKTMLTSLQNTREIDAIKEQIGGAK", "not soluble"),
]

---

- test details: soluble on expression in E. coli; label from the status in PepcDB or PDB records
readout: soluble on expression in E. coli

# item sequence, result
measured = [
    ("MAVCSLVAKITYAEERQQNNYPIILVNGFAGWGREEMLGVKYWGGVHDIQEDLKRNGYTVHTAAVGPVSSNWDRACELYAQINGGTVDYGAAHAEKHGHKRFGRTYSGFAPNWSETNKIHLVGHSMGGQTIRTLVQLLKEGSYEEKNYVKNHPNTKISPLFEGEKSYVHSVTTLATPHNGTTLADGSLLLPFVKDLLITAASFGGNDNLSLYDFKLDQWGLKKNTGESFFQYSNRILNSSIWKNTKDISQWDLSTDGAKELNNWVKTQLNVYYLSYSGHASQAAPITGLHLPHITMNKVLMGNAFFLGSYARYEENRPLIDTTWWQNDGVVNTSSMIAPSSNATVNNNESLQIGKWNHIETKANWDHLDMVGLSVSDTLGFSSIQEFYRAIAEKLSRLPK", "not soluble"),
    ("MRVGQHTLQFANPPVIVATASVVGPKEGEGPLGDTFDMVIDDSYFGEETWEKAERKMLEEAVKMVIAKAQLKPQDIDFLLAGDLLNQTISANYAARSLGIPFLGLYGACSTMYEGMALAAMLIDGGFAHHVVAACSSHYDTAERQYRFPTEQGIQRPPTAQWTVTGAGAVLMAPVGNGPRITHATIGRVLDVGIKDPNDMGSAMAPAAVDTIVRHFQDTGRGPIDYDLIITGDLGRVGHEIATKLLGEKKYDVSKNYSDCGILIYDHERQDTHAGGSGCACSAVVFAGHLMGKLNEGRYKRILGVGTGALLSTTATQQGESIPGIGHGVVIEGLEHHHHHH", "not soluble"),
    ("MSLEVRWNEYLSRNGSLFSSDELSGASPPSVFVGSYGYPRVGVGPMVPPVHGDTSLMDAPERWAGRPLDEIVNYRLSLVRGIRKTRVTGTSGRYIEGLQEAAMSRRPVDSDIRFEKPVSPAALADGCCAPFGPVGEIRRASFGGSSADGAIERAYYDRDLGAADAAVALYDGGTEISRIQGCLSVGMLGRRRKLVPTRWSITAVDDMVSKRLVGRIKDAPVSDAHQVFHYVHMGNLFSVVLFPHRWLFEMMEAYYSGGVLGFGADHEDARGLDHAPATAGAHFASRLAVAEHLCGRGVQAGALVLREIRAEYSVPVGVWQVREGLRAAMAQKPFVAGSLDEAIDEACRPMSISRNEWLSHGSIMRLVRQRTLSEFFEGHHHHHH", "not soluble"),
    ("MPRRALGWTAEVLKRLHGINYPITKDTLREKLAGMSIRGVPVERVIDEIEVDKFDTPRDVLHYIAEAVHKLEERGEIPTETRKGIRWAAEVLKRIHGEHFPMDKQKLKEKLAGLYWRGVPIEKVIDAMEVEQVESPADLLHQLSIAIKKLEEQGEVA", "not soluble"),
    ("MYPSDFASALESLSLKEMRQAIHRLLDIRDENTWMLFGTLPFYACSPDEDDQKLLRRLRAAKNVTVRNDPDGRSRLNVNIFDGNIIVTDFGDTPPLGNIQTDSLPSAYEKWRETKLAKELSCHCPNVRCLGPNVLVKNSYYQDTDFTKRQARS", "not soluble"),
    ("NTFYEITLEDESVLLDEVVAIGYGTQSKATVTSGVVSVKKAELMSSVSASPLNNLQGKVAGLDIRQTTGQPGAQPVVLIRGGSTDPANDSPLFVIDGVVRSNMNGLNQEDIESMEVLKDAASAAIYGAKAANGIILITTKQGSSKD", "not soluble"),
    ("MFIKIFLITYRYKLTVISIIGGGTIGSSIAIPLKRSGFEVIVTRRNTAVLKHLESYGISVMSDNKTASKEADVVFLTLKPVDIIPEVRKIEENIRGKLLISMAAAIPLKLIKDAAPHSIVVRAMTNIAAKVGAGFTPFCVDDGDQEVAKRASSILSALGEVYLVEEKYMDALTALSGSGPAYILTIIEAMMYGGLKLGLPRDLALKASYQTVMGSAKLLAESGEHPSELKEKVITPGGTTIDGIYELEDARVRTAIMKAIEVSTMKANKISESIKKLEQLEHHHHHH", "not soluble"),
    ("MGSDKIHHHHHHMGLMDFRPYFRVTVDGKDISGVLAPRLVSLRVTDGAGVQSDTVEIRLSDTNLFQRISEPRAGAEIEVWLGFPLSLSYMGLFVADTIETGGPPDTVTITGTASVNGETTSGKTALTDQKKRSWPEGTTIGAMVEKIASEHGLIAMVSESLRAEALPHIDQIDESDINLLSRIARDFDAIAKPGNGRLIMTRRGESLTASGQPLPVVRVDKSSVTEWRYRNSLRERVGRVIATTQDLEAGQPVEVEAGQGEPALRLRRRFPDKVTARKTAESELKRLGRAGRSLSITMPGNSDIVAEARLSASGFRSYIDGEWLVSRATHILDSGGYRTAITAEPVE", "not soluble"),
    ("MSEILFINGKVRFPITIDPTVWIFDDRKVDLTTYFDETRENTSELETYLKNTSEHWDREIRDGAAFPPIQQSVKKYKKEQLITGTFGIPFHPFLANAEILEDATQVEIETVDHTMTLPLETVKNAILGFSKEGKPLKEDGPVHLYFNDGSNQQNPIRNIRKFTII", "not soluble"),
    ("TKDFEWKTTVTASHNANKLLSLSNDLYETSNQIDHAYLGEPINLSTQRMEVGRSMGQFYGMKSVGVSENGLWMVENTKTGEIEEFTDNMLSNDDYRQYLGNALPKLYLGWNNSFRYKNFDLSFQMTGQFGFKILNEPRAYYENNSIAYNRLKSVQKAPYGGQYTLSTAQKQTFVSYYLEDGDFLKMTNITLGYNIPLKSSKFVKNIRAYVSADNLFCITGYDGLDPEMSNGDIWSLGIDWRDKYPSTRSFTFGLNVSF", "not soluble"),
]
